Experiment: wild-type TIM10 yeast growth inhibition – luminescence, uHTS, counter-screen for tim10-1 yeast inhibitor project, primary screen (AID 463195);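 further: wild-type TIM10 isogenic control strain grown at permissive 25 °C; 0% = DMSO yeast wells and 100% = minimal medium wells without yeast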
Details: S. cerevisiae TIM10 strain growth, BacTiter-Glo luminescence, 24 h; at 10 µM
About 4,600 (1.4%) of roughly 330,000 compounds were called active.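 How the source made its calls: active means inhibition of 40% or more at the single tested concentration; inactive means the rest.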 The sample as a whole holds a higher share of actives than the screen did.
Classes used: YES (active), NO (inactive)

1) Fc1ccccc1/C=C1\CCCC2=C1Nc1ncnn1C2c1ccccc1F (stereo unspecified): YES
2) CC1=C(C(N)=O)C(c2ccc(Br)cc2)n2ncnc2N1 (stereo unspecified): NO
3) OC(c1ccccc1)c1nccn1Cc1ccccc1 (stereo unspecified): NO
4) CCCN(CCC)C(=S)Nc1cc(C(=O)OC)ccc1C(=O)OC: NO
5) Cn1nccc1/C=N\NC(=O)c1ccc(Cl)cc1: NO
6) CS(=O)(=O)N1CCN(CC(=O)NC2CCCC2)CC1: NO

---

Test: wild-type TIM10 yeast growth inhibition – luminescence, uHTS, counter-screen for tim10-1 yeast inhibitor project, primary screen (AID 463195)
Conditions: S. cerevisiae TIM10 strain growth, BacTiter-Glo luminescence, 24 h; at 10 µM
The campaign covered roughly 330,000 compounds. About 4,600 (1.4%) were called active.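 How the source made its calls: active means inhibition of 40% or more at the single tested concentration; inactive means the rest.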 This excerpt belongs to a sample that is enriched for actives.
Outcomes: Y (active), N (inactive)

1. Cc1csc(=O)n1CC(=O)Nc1ccc(S(C)(=O)=O)cc1: N
2. Cc1cccc(-c2nc3ccc(C(=O)NCCN4CCN(C)CC4)cc3nc2-c2cccc(C)c2)c1: N
3. NC(=O)C(Cc1ccccc1)NC(=O)C12CC3CC(CC(C3)C1)C2 (stereo not given): N
4. CCCCn1c(=O)c(CCC(=O)OCC(=O)Nc2ccc(C)c(Cl)c2)nc2ccccc21: N
5. CCN(CC)CCN(C(=O)c1cc(Cl)sc1Cl)c1nc2cc3c(cc2s1)OCO3: N
6. C=CCNC(=O)c1ccc2c3n(nc2c1)-c1ccc(C)cc1CO3: Y
7. COc1ccc(NC(=O)ON=C2c3ccccc3-c3ccccc32)cc1: N
8. O=C(Nc1ccc(N2CCN(C(=O)c3ccccc3)CC2)c(Cl)c1)c1ncn[nH]1: N
9. C/C(=N/NC(=S)Nc1ccccc1)c1ccc2c(c1)OCO2: Y
10. O=C(N/N=C/c1cccc(O)c1)c1cc2c(ccc3ccccc32)o1: N
11. CC(=O)c1cccc(NC(=S)N2CCN(S(C)(=O)=O)CC2)c1: N
12. CCOC(=O)C1CCCN(C(=O)c2ccc(CS(=O)(=O)c3ccc(Br)cc3)o2)C1 (stereo not given): N
13. CN1C(=O)/C(=N/OC(=O)c2ccccc2Br)c2ccccc21: Y
14. O=C(CCCN1CCc2[nH]c3ccc(F)cc3c2C1)c1ccc(F)cc1: N
15. Cc1ccc(/C=C/C(=O)OCC(=O)NCc2ccc(Cl)cc2)o1: N
16. CCC(C)Cn1c(O)cc2nn(-c3nc4ccccc4s3)c(=O)c-2c1C (stereo not given): N
17. S=C(NCc1ccc(Cl)cc1)NC12CC3CC(CC(C3)C1)C2: Y
18. COc1cccc(NC(C)=[N+](C)CCNS(=O)(=O)c2ccc(Cl)cc2)c1: N
19. Cc1ccc(CN(N=Nc2nonc2N)c2nonc2N)c(C)c1: N
20. CCOc1ccc(-n2c(SCC(=O)Nc3cc(C(=O)O)ccc3Cl)nc3ccccc3c2=O)cc1: N
21. CN1C(=O)/C(=C\c2cc(Br)cs2)c2ccccc21: N
22. COC(=O)c1ccc(-n2cnc3ccccc32)nc1: N
23. CCC1(CC)NC(=O)N(Cc2nc3ccccc3s2)C1=O: N
24. O=c1nc2s/c(=C\c3ccco3)c(=O)n2nc1Cc1ccccc1: Y
25. CCCOc1ccc(NC(=O)C2OC3OC(C)(C)OC3C3OC(C)(C)OC23)cc1 (stereo not given): N
26. O=C(NCCc1ccco1)c1nn(Cc2ccccc2)c(=O)c2ccccc12: N
27. c1ccc(-c2nccc(-c3ccc(-n4cnc5ccccc54)cc3)n2)nc1: Y
28. Cc1c(/C=N\NC(=O)c2cc3ccccc3o2)c2ccccc2n1C: N
29. CN(CC(=O)Nc1ccc(Cl)cc1)C(=O)CNC(=O)c1ccc2ccccc2c1: N
30. CN(C)CCN(C(=O)C1=COCCO1)c1nc2ccc(Cl)cc2s1: Y
31. COc1ccc(S(=O)(=O)Nc2cc(C)on2)cc1NC(C)=O: N
32. CCN(C(=O)COc1ccc(C(=O)c2ccccc2)cc1)c1ccccc1: N
33. Cc1nccc(-c2ccc(-n3c(C)ccc3C)cc2)n1: N
34. O=C(NCc1ccccc1)c1ccc(CNc2c(N3CCCC3)c(=O)c2=O)cc1: N
35. COc1cc(Br)cc(/C=N/c2ncn[nH]2)c1O: Y
36. O=C(O)CCc1nc2cc(Cl)ccc2n(Cc2ccccc2)c1=O: N
37. Cc1ccc2nc(N(CCN(C)C)C(=O)C3=COCCO3)sc2c1: Y
38. COc1cccc2cc(/C(C)=N/NC(=O)c3ccco3)oc12: N
39. CC(=NCc1ccco1)c1c(C(F)(F)F)[nH]n(-c2nc3ccccc3s2)c1=O: Y
40. COc1ccc(CCNCC(O)Cn2ccc3ccccc32)cc1OC (stereo not given): N
41. COc1ccc(C2=NS(=O)(=O)N(C)C(C(=O)NC(C)c3ccccc3)=C2)cc1 (stereo not given): N
42. CCc1ccc2nc(N(CCCN(C)C)C(=O)c3ccc4c(c3)OCCO4)sc2c1: N
43. COC(=O)Cc1ccc(NC(=S)NCc2ccc(Cl)cc2)cc1: N
44. O=C(N/N=C/c1c[nH]c2ccccc12)c1cc2ccccc2o1: Y
45. C=CCC(CC=C)(C(N)=O)c1ccccc1: N

---

Experiment: wild-type TIM10 yeast growth inhibition – luminescence, uHTS, counter-screen for tim10-1 yeast inhibitor project, primary screen (AID 463195);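 further: wild-type TIM10 isogenic control strain grown at permissive 25 °C; 0% = DMSO yeast wells and 100% = minimal medium wells without yeast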
Settings: S. cerevisiae TIM10 strain growth, BacTiter-Glo luminescence, 24 h; at 10 µM; hits give high values
Screen size: about 330,000 compounds; about 4,600 (1.4%) were called active. The full list was thinned out, with actives kept by preference.
attribute.measured: inhibition (%)

1. CCCN1CCn2c3c(c4cc(Br)ccc42)CCCC31 (stereo unspecified): 6.43
2. CC(=O)Nc1ccc(C(=O)N(C2=NC(C)CS2)c2ccc(Cl)cc2)cc1 (stereo unspecified): 20.1
3. CC(C)NC(=O)N1CCN(c2ccncc2S(=O)(=O)N2CCCCC2)CC1: -2.83
4. CC(=O)Nc1ccc(/C=C/C(=O)c2ccccc2)cc1: 26.1
5. Cc1ccc(Nc2nc(Cl)c(C=O)s2)cc1: 41.1
6. O=C(/C=C/c1cc2c(cc1Br)OCO2)NCc1ccc(Cl)cc1: -5.07

---

Measured inhibition of individual entries
Experiment: wild-type TIM10 yeast growth inhibition – luminescence, uHTS, counter-screen for tim10-1 yeast inhibitor project, primary screen (AID 463195);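 further: wild-type TIM10 isogenic control strain grown at permissive 25 °C; 0% = DMSO yeast wells and 100% = minimal medium wells without yeast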
Settings: S. cerevisiae TIM10 strain growth, BacTiter-Glo luminescence, 24 h; at 10 µM; hits give high values
Among all 330,000 compounds or so, about 4,600 (1.4%) were called active. Many of the other results were omitted from the sample, so actives are more common in it than they were.
attribute.measured: inhibition (%)

1) CN(C)C(=O)CCc1ccc2c3c([nH]c2c1)[C@]1(CCc2ccccc2)[C@@H](C(=O)N2CCCCC2)C[C@H](CC(=O)NCCC2=CCCCC2)C(=O)N1CC3: -1.38
2) C=CCO/N=C(\C)c1c(O)c(C)c(-c2ccccc2)n(-c2ccccc2)c1=O: 30.7
3) O=C(CSc1nc(O)c(Cc2ccccc2)c(=O)[nH]1)Nc1nc2c(s1)CCCC2: -0.307
4) COc1nc(NC2CCCCC2)nc(N2CCCCCC2)n1: 40
5) Cn1c(CC2Sc3ccccc3NC2=O)nnc1SCC(=O)c1ccc(Cl)cc1 (stereo not given): 2.41
6) COc1ccc(C(=O)NC(C)c2nccs2)cc1OC1CCN(C(C)C)CC1 (stereo not given): -15
7) O=C1C2N=NN(CC(=O)N3N=C(c4cccc5ccccc45)CC3c3ccccc3)C2C(=O)N1c1ccccc1 (stereo not given): 22.8
8) COC(=O)CN(c1cccc(C(C)=O)c1)S(C)(=O)=O: 12.6
9) CCn1nnc(NC(=O)c2cc(Cl)c(OC)c(Cl)c2)n1: -27.2
10) O=C(OCC(=O)c1c[nH]c2ccccc12)c1cccc(O)c1: 5.38

---

Assay: wild-type TIM10 yeast growth inhibition – luminescence, uHTS, counter-screen for tim10-1 yeast inhibitor project, primary screen (AID 463195);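 further: wild-type TIM10 isogenic control strain grown at permissive 25 °C; 0% = DMSO yeast wells and 100% = minimal medium wells without yeast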
Details: S. cerevisiae TIM10 strain growth, BacTiter-Glo luminescence, 24 h; at 10 µM; hits give high values
In all, about 330,000 compounds went through this assay and about 4,600 (1.4%) were called active. The list comes from a sample in which actives are over-represented; it also holds close analogues and randomly drawn compounds.
Recorded inhibition for the following compounds
attribute.measured: inhibition (%)

1. CC(C)Oc1c(Br)cc(Br)cc1/C=N/NC(N)=S: 51.7
2. CC(C)CC(COCc1ccc(Cl)cc1)N1CCN(C(=O)c2ccc(C(F)(F)F)cc2)CCC1=O (configuration not stated): 17.7
3. O=C1c2ccccc2C(=O)c2c1cccc2N1CCN(Cc2ccccc2)CC1: 41.3
4. Cc1nn2c(c1-c1ccccc1)N=C(c1ccco1)CC2c1ccccc1 (configuration not stated): 48.1
5. O=C(CSc1cccc[n+]1[O-])c1ccc(Cl)cc1: 1.21
6. Cc1[nH]c2ccccc2c1C(=O)CSCC(=O)O: 13.1
7. CC(C)c1ccc2c(c1)c(SC(C)(C)C)c(CC(C)(C)C(=O)O)n2Cc1ccc(Cl)cc1: 3.33
8. Cc1[nH]c2ccccc2c1C(=O)COC(=O)c1c(-c2ccccc2)noc1C: 48.3
9. O=S(=O)(NC1CCCCC1)c1ccc(F)c2ccccc12: 48.4
10. COc1ccccc1C(=O)CSc1cccc[n+]1[O-]: -4.59
11. C/C(N)=C(/C#N)C(=O)COC(=O)c1cc(-c2ccc(C)cc2)nc2ccccc12: 23.8
12. CSC1=NCCN1C(=O)Cc1cccc2ccccc12: 4.36
13. O=C(O)CCCC(=O)N1N=C(c2ccco2)CC1c1ccco1 (configuration not stated): -11.4
14. Cc1cc(C)cc(NC(=O)C(OC(=O)c2ccc(O)cc2)c2ccccc2)c1 (configuration not stated): 9.95
15. Cc1onc(-c2ccccc2Cl)c1C(=O)OCC(=O)c1ccccc1: 23.4
16. COc1ccc(N2C(=O)C(CC(=O)Nc3ccc(F)cc3)N(CCc3cccs3)C2=O)cc1 (configuration not stated): 27.1
17. O=C1c2ccccc2C(=O)c2c1cccc2N1CCN(C/C=C/c2ccccc2)CC1: 38.5
18. COc1ccc(-c2c(C)cc3oc(=O)cc(-c4ccccc4)c3c2C)cc1C=O: -23.6
19. Cc1ccc(Nc2cc(=O)n(C3CCCCC3)c(=O)[nH]2)cc1C: 4.8
20. Cc1cccc(-n2c(C)cc(/C=N/NC(N)=S)c2C)c1: -24.1
21. Cc1nn(C(=O)c2ccoc2C)c(N)c1-c1ccccc1: -12.3
22. N#Cc1ccc(C(=O)Nc2nc(-c3cccs3)c(C(=O)C(F)(F)F)s2)cc1: 9.92
